target: glucagon receptor (GCGR) (Homo sapiens, UniProt P47871); experiment: Glucagon cAMP inhibition assay (Cisbio cAMP Dynamic 2 HTRF); details: GCGR overexpressed CHO-K1 cells or human primary hepatocytes (not specified); glucagon at EC50
Sequence (P47871 26-477, species assumed): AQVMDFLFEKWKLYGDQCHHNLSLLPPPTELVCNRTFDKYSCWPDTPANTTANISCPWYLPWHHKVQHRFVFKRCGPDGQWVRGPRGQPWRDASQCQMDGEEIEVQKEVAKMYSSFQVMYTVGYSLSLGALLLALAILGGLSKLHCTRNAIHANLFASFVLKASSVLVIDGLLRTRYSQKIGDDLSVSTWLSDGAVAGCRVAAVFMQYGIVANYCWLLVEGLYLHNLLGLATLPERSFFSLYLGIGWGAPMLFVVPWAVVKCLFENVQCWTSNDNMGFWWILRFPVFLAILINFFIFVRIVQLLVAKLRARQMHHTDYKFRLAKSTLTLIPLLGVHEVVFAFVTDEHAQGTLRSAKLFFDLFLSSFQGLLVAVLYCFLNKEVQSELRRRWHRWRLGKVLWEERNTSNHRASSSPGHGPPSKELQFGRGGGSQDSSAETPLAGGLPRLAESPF
MEASURE_NAME: IC50 (nM)

These solved cases illustrate the format of a correct answer.
>>> endpoint_result("CCOC(=O)CCNC(=O)c1ccc(N[C@H](c2ccc(-c3nnc(C(F)(F)F)o3)cc2)C(C)C)cc1 [Compound 1-55]")
1360
>>> endpoint_result("CCOC(=O)CCNC(=O)c1ccc(NC(c2ccc(-c3nc4ccccc4o3)cc2)C(C)C)cc1 (stereo not drawn) [Compound 4-1]")
95.7
>>> endpoint_result("CCC(C)[C@@H](Nc1ccc(C(=O)NCCC(=O)O)cc1)c1ccc(-c2noc(-c3ccccc3)n2)cc1 (stereo partly drawn) [Compound 2-21]")
569

A: CCOC(=O)CCNC(=O)c1ccc(NC(c2ccc(-c3noc(C(C)(C)C)n3)cc2)C(C)C)cc1 (stereo not drawn) [Compound 2-1]
B: CCCC(Nc1ccc(C(=O)NCCC(=O)OCC)cc1)c1ccc(-c2nnc(-c3ccccc3)o2)cc1 (stereo not drawn) [Compound 1-6]
C: CC(C)[C@H](Nc1ccc(C(=O)NCCC(=O)O)cn1)c1ccc(-c2nc3ccccc3o2)cc1 [Compound 4-30]
D: CCCCC(Nc1ccc(C(=O)NCCC(=O)OC)cc1)c1ccc(-c2noc(-c3ccccc3)n2)cc1 (stereo not drawn) [Compound 2-32]
E: CCOC(=O)CCNC(=O)c1ccc(C(Nc2ccc(-c3nnc(-c4ccccc4)o3)cc2)C(C)C)cc1 (stereo not drawn) [Compound 3-4]
input: Put the items in sequence by IC50, from largest down. Form field (ranking): labels in requested order.
output: C, E, A, D, B

A: CCOC(=O)CCNC(=O)c1ccc(N[C@H](c2ccc(-c3nc4ccccc4o3)cc2)C(C)C)cc1 [Compound 4-5]
B: CCCCC(Nc1ccc(C(=O)NCCC(=O)OCC)cc1)c1ccc(-c2noc(C(C)(C)C)n2)cc1 (stereo not drawn) [Compound 2-3]
C: CC(C)C(Nc1ccc(C(=O)NCCC(=O)O)cc1)c1ccc(-c2nc3ccccc3o2)cc1 (stereo not drawn) [Compound 4-3]
input: Put the items in sequence by IC50, from largest down. Form field (ranking): labels in requested order.
output: C, B, A

I: CCOC(=O)CCNC(=O)c1ccc(N[C@@H](CC(C)C)c2ccc(-c3nnc(-c4ccccc4)o3)cc2)cc1 [Compound 1-59]
II: CCCC[C@@H](Nc1ccc(C(=O)NCCC(=O)OCC)cc1)c1ccc(-c2nc3ccccc3o2)cc1 [Compound 4-9]
III: CC(C)[C@H](Nc1ccc(C(=O)NCCC(=O)O)cn1)c1ccc(-c2nc3ccccc3s2)cc1 [Compound 4-28]
input: Put the items in sequence by IC50, from largest down. Form field (ranking): labels in requested order.
output: III, II, I
(III: 2690 nM, II: 186 nM, I: 26 nM)

* * *

Target: glucagon receptor (GCGR) (Homo sapiens, UniProt P47871)
Assay: Glucagon cAMP inhibition assay (Cisbio cAMP Dynamic 2 HTRF)
Conditions: GCGR overexpressed CHO-K1 cells or human primary hepatocytes (not specified); glucagon at EC50
Protocol: Glucagon eAMP Inhibition Assay Downstream secondary messenger eAMP induced by glucagon was detected by Cisbio cAMP Dynamic 2 kit. Testing compounds were each prepared as a dimethyl sulfoxide (DMSO) solution at the concentration of 10 mM. […] After incubation, lysis buffer contain cAMP antibody and fluorescence acceptor were added into each well for additional 60 minutes incubation. […]
MEASURE_NAME: IC50 (nM)

These solved cases illustrate the format of a correct answer.
>>> endpoint_result("O=C(O)CCNC(=O)c1ccc(N[C@H](c2ccc(-c3nc4ccccc4o3)cc2)C2CCCC2)cc1")
862
>>> endpoint_result("CCOC(=O)CCNC(=O)c1ccc(N[C@H](c2ccc(-c3noc(-c4ccccc4)n3)cc2)C(C)CC)cc1 (stereo partly drawn)")
46.7
>>> endpoint_result("CCCCC(Nc1ccc(C(=O)NCCC(=O)O)cc1)c1ccc(-c2nnc(C(F)(F)F)o2)cc1 (stereo not drawn)")
3450
>>> endpoint_result("CC(C)C[C@@H](Nc1ccc(C(=O)NCCC(=O)O)cc1)c1ccc(-c2noc(-c3ccccc3)n2)cc1")
334
>>> endpoint_result("CCOC(=O)CCNC(=O)c1ccc(NC(c2ccc(-c3nnc(-c4ccc(OC)cc4)o3)cc2)C(C)C)cc1 (stereo not drawn)")
284
>>> endpoint_result("CCOC(=O)CCNC(=O)c1ccc(NC(c2ccc(-c3nnc(C(F)(F)F)o3)cc2)C(C)CC)cc1 (stereo not drawn)")
88
>>> endpoint_result("CC(C)[C@@H](Nc1ccc(C(=O)NCCC(=O)O)cc1)c1ccc(-c2noc(-c3ccccc3)n2)cc1")
1000
>>> endpoint_result("CCOC(=O)CCNC(=O)c1ccc(N[C@H](c2ccc(-c3nnc(-c4ccccc4)o3)cc2)C(C)C)cc1")
40.3

1: CC(C)[C@H](Nc1ccc(C(=O)NCCC(=O)O)cc1)c1ccc(-c2noc(-c3ccccc3)n2)cc1
2: CCC(C)[C@@H](Nc1ccc(C(=O)NCCC(=O)O)cc1)c1ccc(-c2nnc(-c3ccccc3)o2)cc1 (stereo partly drawn)
input: Identify the entry with the larger IC50. Options: 1 and 2 Lab note: record the label of whichever item you select.
output: 2
